Documented Kd across a set of binders
Biological target: T1, human factor X (human, UniProt P00742 41-179; P00742 183-488)
T1 construct: Zymogen used as analyte in SPR; also called FX; Human FX (MW ~58 KDa)
T1 sequence (P00742 41-179, chain 1 of 2): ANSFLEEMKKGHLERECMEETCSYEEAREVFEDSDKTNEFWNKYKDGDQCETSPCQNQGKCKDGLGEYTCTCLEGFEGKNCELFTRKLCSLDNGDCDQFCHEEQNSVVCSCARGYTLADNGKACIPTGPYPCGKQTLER
T1 sequence (P00742 183-488, chain 2 of 2): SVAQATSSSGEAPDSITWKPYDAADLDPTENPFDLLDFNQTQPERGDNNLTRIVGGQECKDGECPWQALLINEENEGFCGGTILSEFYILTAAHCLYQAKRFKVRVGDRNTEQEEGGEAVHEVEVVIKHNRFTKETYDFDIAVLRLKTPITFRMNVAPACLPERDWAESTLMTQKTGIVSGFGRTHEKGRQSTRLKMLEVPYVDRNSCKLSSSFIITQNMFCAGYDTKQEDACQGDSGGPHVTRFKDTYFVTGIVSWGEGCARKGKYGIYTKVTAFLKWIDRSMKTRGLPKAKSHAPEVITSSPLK
Assay: SPR, IgG captured on anti-human IgG Fc, human FX as analyte
Give a bare numeral; the unit nM is implied.

INSERT INTO assay_data (binder, observation_type, unit_symbol, observed_value) VALUES
  ('TINA-0203.0128 (antibody, V domains shown, Monospecific IgG4PE) VH: QVQLVQSGAEVKKPGASVKVSCKASRYSFTSYYMHWVRQAPGQGLEWMGIINPKSGSTSYAQKFQGRVTMTRDTSTSTVYMELISLRSEDTAVYYCARDGYGSSSRCLQLWGQGTLVTVSS VL: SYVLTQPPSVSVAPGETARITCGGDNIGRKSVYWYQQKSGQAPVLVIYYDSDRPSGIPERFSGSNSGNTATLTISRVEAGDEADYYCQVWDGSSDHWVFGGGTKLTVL', 'Kd', 'nM', 880);

// recorded Kd for TINA-0200.0128 (antibody, V domains shown, Monospecific IgG4PE) VH: QVQLVQSGAEVKKPGASVKVSCKASRYSFTSYYLHWVRQAPGQGLEWMGIINPKTGDTSYAQKFQGRVTMTRDTSTTTVYMELSSLRSEDTAVYYCARDGYGSSARCLQLWGQGTLVTVSS VL: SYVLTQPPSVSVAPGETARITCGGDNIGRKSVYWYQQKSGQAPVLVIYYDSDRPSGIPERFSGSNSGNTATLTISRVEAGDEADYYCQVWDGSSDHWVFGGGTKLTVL : 1130
